All figures here come from patent US10604509B2.

Below, each entry is listed with its recorded pEC50.
Tested on: NQO1 specific enzyme activity in BEAS-2B cells
Experiment: BEAS-2B NQO1 MTT assay
Format: cell-based
Settings: Homo sapiens, BEAS-2B, 48 h, BEAS-2B cells, 48 hours with compound, MTT readout; read-out: EC50 of NQO1 specific activity induction
pEC50: −log10 of the molar value. Counter-ions that a name gives are not always drawn.

Example results:
| COMPOUND | pEC50 |
| --- | --- |
| Cc1c(C(CC(=O)O)c2ccc(F)c(CN3Cc4ccccc4O[C@@H](C)C3)c2)ccc2c1nnn2C (stereo partly shown) [Example 95, Formic Acid Salt] | 6.00 to 7.00 |
| CC[C@@H]1CN(Cc2cc([C@H](c3ccc4c(nnn4C)c3C)C(C)C(=O)O)ccc2C)Cc2cc(F)ccc2O1 (stereo partly shown) [Example 42, Trifluoroacetic Acid Salt] | 6.00 to 7.00 |
| CCC1CN(Cc2cc(C(CC(=O)O)c3ccc4c(nnn4C)c3C)ccc2C)Cc2c(Cl)cccc2O1 (stereo not shown) | 6.00 to 7.00 |
| CCn1cc(CCC(c2ccc(C)c(CN3Cc4ncccc4OC(C)(C)C3)c2)C(C)(C)C(=O)O)nn1 (stereo not shown) | 7.00 to 8.00 |
| CCC1CN(Cc2cc(C(CCc3cn(CC)nn3)CC(=O)O)ccc2C)Cc2ccccc2O1 (stereo not shown) [Example 4, Trifluoroacetic Acid Salt] | 5.00 to 6.00 |
| Cc1ccc(C(c2ccc3c(nnn3C)c2C)C(C)(C)C(=O)O)cc1CN1CCCn2cncc2C1 (stereo not shown) [Example 37, Sodium salt] | 5.00 to 6.00 |

Turning now to a further record.
Can you share its pEC50? I mean this compound: CCC1CN(Cc2cc(C(CC(=O)O)c3ccc4c(nnn4C)c3C)ccc2C)Cc2ccc(OC)cc2O1 (stereo not shown)
6.00 to 7.00

* * *

Tested on: NQO1 specific enzyme activity in BEAS-2B cells
Test: BEAS-2B NQO1 MTT assay
Type: cell-based
Details: Homo sapiens, BEAS-2B, 48 h, BEAS-2B cells, 48 hours with compound, MTT readout; read-out: EC50 of NQO1 specific activity induction
Where a name gives a salt, the structure may show the parent alone.
Below, each entry is listed with its recorded EC50.

| COMPOUND | VALUE_MEASURED |
| --- | --- |
| Cc1ccc(C(c2ccc3c(nnn3C)c2C)C(C)(C)C(=O)O)cc1Cn1ccnc1CC1CCCCC1 (stereo not shown) [Example 143, trifluoroacetic acid salt] | 1000 to 10000 nM |
| Cc1ccc(C(CC(=O)O)c2ccc3c(nnn3C)c2C)cc1CN1CCCC(S(=O)(=O)C2CCCCC2)C1 (stereo not shown) [compound 186] | 100 to 1000 nM |
| CC[C@@H]1CN(Cc2cc([C@@H](c3ccc4c(nnn4C)c3C)C(C)(C)C(=O)OCOC(=O)C(C)(C)C)ccc2C)Cc2cnccc2O1 [Example 253] | < 1 nM |

Can you share its EC50? I mean this compound: CCC1c2cccn2CCN1Cc1cc(C(CC(=O)O)c2ccc3c(nnn3C)c2C)ccc1C (stereo not shown) [Example 19, formic acid salt]
1000 to 10000 nM

Can you share its EC50? I mean this compound: CCn1nnc2c(F)c([C@H](c3ccc(C)c(CN4Cc5cccnc5OC(C)(C)C4)c3)[C@@H](C)C(=O)O)ccc21 [Example 195]
10 to 100 nM

Can you share its EC50? I mean this compound: CC[C@@H]1CN(Cc2cc([C@H](CC(=O)O)c3ccc4c(nnn4C)c3C)ccc2Cl)Cc2ncccc2O1 [Example 263]
10 to 100 nM

Can you share its EC50? I mean this compound: CCn1nnc2c(C)c([C@@H](c3ccc(C)c(CN4Cc5ccccc5OC(C)(C)C4)c3)[C@H](C)C(=O)O)ccc21 [Example 200, Trifluoroacetic Acid Salt]
10 to 100 nM

Can you share its EC50? I mean this compound: CCOC(=O)C(C)(C)[C@@H](c1ccc(C)c(CN2Cc3cnccc3O[C@H](CC)C2)c1)c1ccc2c(nnn2C)c1C [Example 257]
100 to 1000 nM

Can you share its EC50? I mean this compound: Cc1ccc(C(c2ccc3c(nnn3C)c2C)C(C)(C)C(=O)O)cc1Cc1cnnn1CC1CCCCCC1 (single isomer, unassigned) [Example 241]
< 1 nM
